experimentalSystem: Carboxypeptidase A1 (Homo sapiens)
Sequence (P15085 whole entry): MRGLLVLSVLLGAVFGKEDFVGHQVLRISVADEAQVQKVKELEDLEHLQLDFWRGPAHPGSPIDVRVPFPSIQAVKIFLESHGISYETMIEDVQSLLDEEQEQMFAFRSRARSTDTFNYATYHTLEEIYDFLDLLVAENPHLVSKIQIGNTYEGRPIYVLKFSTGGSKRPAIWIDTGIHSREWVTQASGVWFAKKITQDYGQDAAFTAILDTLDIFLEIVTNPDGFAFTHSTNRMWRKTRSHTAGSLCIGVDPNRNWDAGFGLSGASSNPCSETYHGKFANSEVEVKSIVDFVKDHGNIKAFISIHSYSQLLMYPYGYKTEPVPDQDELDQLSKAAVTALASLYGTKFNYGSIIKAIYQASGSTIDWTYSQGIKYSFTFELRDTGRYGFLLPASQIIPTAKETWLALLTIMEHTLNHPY
assayExplanation: Inhibition of human recombinant CpA by fluorescence assay
conditionDescription: read-out: Ki app
Criterion: Ki strictly less than 4 µM. Met: Fulfilled. Not met: Not fulfilled.

Here are 9 compounds together with their reported answers.
smilesnotation=CC[C@@H](C)[C@H](S)C(=O)N[C@@H](Cc1ccc(O)cc1)C(=O)O labelclass=Fulfilled
smilesnotation=CC[C@@H](C)[C@H](S)C(=O)NCC(=O)O labelclass="Not fulfilled"
smilesnotation=CC[C@@H](C)[C@H](S)C(=O)N[C@@H](Cc1ccc(OCc2cc(C(F)(F)F)cc(C(F)(F)F)c2)cc1)C(=O)O labelclass="Not fulfilled"
smilesnotation=CC[C@@H](C)[C@H](S)C(=O)N[C@@H](Cc1ccc(OCc2ccc(F)c(F)c2)cc1)C(=O)O labelclass=Fulfilled
smilesnotation=CC[C@@H](C)[C@H](S)C(=O)N[C@@H](Cc1ccc(OCc2ccccc2)cc1)C(=O)O labelclass="Not fulfilled"
smilesnotation=CC[C@@H](C)[C@H](S)C(=O)N[C@@H](Cc1ccc(OCc2ccc(F)cc2F)cc1)C(=O)O labelclass=Fulfilled
smilesnotation=CC[C@@H](C)[C@H](S)C(=O)N[C@@H](C)C(=O)O labelclass="Not fulfilled"
smilesnotation=CC[C@@H](C)[C@H](S)C(=O)N[C@@H](Cc1ccccc1Oc1ccccc1)C(=O)O labelclass=Fulfilled
smilesnotation=CC[C@@H](C)[C@H](S)C(=O)N[C@@H](Cc1cccc2ccccc12)C(=O)O labelclass=Fulfilled

hey, is Ki for `CC[C@@H](C)[C@H](S)C(=O)N[C@@H](Cc1ccc(Oc2ccccc2)cc1)C(=O)O` lower than 4 µM or not? Not fulfilled
